target: Human pyruvate kinase R (PKR) (Homo sapiens, UniProt P30613); construct: Human pyruvate kinase R (PKR), residues 14-574; 6x-His (N, cleaved yes); 8x-Arg (N, cleaved yes); SUMO (N, cleaved yes); host or cells: E. coli; test: Biochemical assay for activation of pyruvate kinase R (Kinase-Glo luminescence measurement of ATP generation); settings: maximal activation level relative to the activation level achieved by the literature compound AG-348 @ 10 μM
Sequence (P30613 14-574): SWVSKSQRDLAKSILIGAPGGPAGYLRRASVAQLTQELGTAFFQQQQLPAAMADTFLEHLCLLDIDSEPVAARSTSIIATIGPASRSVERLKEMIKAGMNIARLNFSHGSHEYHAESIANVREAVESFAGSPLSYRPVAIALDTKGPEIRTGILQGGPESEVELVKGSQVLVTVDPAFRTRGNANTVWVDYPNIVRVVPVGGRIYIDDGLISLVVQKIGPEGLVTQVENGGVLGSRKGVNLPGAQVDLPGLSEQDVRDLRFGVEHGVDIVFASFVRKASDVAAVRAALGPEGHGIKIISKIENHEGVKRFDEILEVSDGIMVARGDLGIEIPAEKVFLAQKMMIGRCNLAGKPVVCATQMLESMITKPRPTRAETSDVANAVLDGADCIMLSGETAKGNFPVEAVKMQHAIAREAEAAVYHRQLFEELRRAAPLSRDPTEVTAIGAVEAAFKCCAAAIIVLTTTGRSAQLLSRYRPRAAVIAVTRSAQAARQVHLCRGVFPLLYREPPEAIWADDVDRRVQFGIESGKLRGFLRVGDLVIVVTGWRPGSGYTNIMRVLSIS
Give Emax for every item shown.
Answers are plain numbers, in %.

These solved cases illustrate the format of a correct answer.
>>> df
                                smiles_code  result_number
0  O=C(NCc1ncnn1-c1ccc2cccnc2c1)NCc1n[nH]c(=O)n1-c1ccc(Cl)c(F)c1             60
1  CCN(Cc1ncnn1-c1ccc(Cl)c(F)c1)C(=O)NCc1ncnn1-c1ccc(OC)nc1             51
2  CC1(Cn2ncnc2CNC(=O)NCc2ncnn2-c2ccc(Cl)c(F)c2)CCOCC1             49
3  Cc1nc(CNC(=O)NCc2ncnn2-c2ccc3c(c2)ncn3C)n(-c2ccc(Cl)c(F)c2)n1             94
4  CCN(Cc1ncnn1CC1CCOCC1)C(=O)NCc1ncnn1-c1ccc(Cl)c(F)c1             64

Kindly give each listed record's Emax.
1. Cc1nc(CNC(=O)NCc2ncnn2-c2cc(C)c3nccnc3c2)n(-c2ccc(Cl)c(F)c2)n1
2. CCc1ccc(-n2ncnc2CNC(=O)NCc2nc(C)nn2-c2ccc(Cl)c(F)c2)cn1

**A:**
[73, 71]

Values compiled from patent US20230278984A1.
